Test: Metabolic stability in rat liver microsomes after 30 mins
Assay type: ADME, Microsome
Conditions: read-out: Stability
Returns the class for an entry based on its remaining at 0.5 h. Class ranges: low group (below 30%), middle group (30% to below 70%), high group (70% or more)

The examples below pair each entry with its known result.
## Task State the band of O=C(c1ccc(Br)cc1NS(=O)(=O)c1cccc2nsnc12)N1CCCCC1
## Result low group

## Task # bin lookup: classify COC(=O)c1cc(S(=O)(=O)Nc2cc(Br)ccc2C(=O)N2CCCCC2)oc1C by its remaining at 0.5 h
## Result high group

## Task Input Cc1ccc(S(=O)(=O)Nc2cc(Br)ccc2C(=O)N2CCCCC2)cc1[N+](=O)[O-] ; output its category
## Result low group

## Task Bin this entry: N#Cc1cccc(S(=O)(=O)Nc2cc(Br)ccc2C(=O)N2CCCCC2)c1
## Result high group

## Task Which band does COC(=O)c1c(C)oc(C)c1S(=O)(=O)Nc1cc(Br)ccc1C(=O)N1CCCCC1 fall in?
## Result low group

More entries:
## Task Sort into band: COC(=O)c1sccc1S(=O)(=O)Nc1cc(Br)ccc1C(=O)N1CCCCC1
## Result middle group

## Task Form field 'band' for O=C(c1ccc(Br)cc1NS(=O)(=O)c1ccc2nsnc2c1)N1CCCCC1
## Result low group

## Task Tag the class for O=C(c1ccc(Br)cc1NS(=O)(=O)c1c(F)cccc1F)N1CCCCC1
## Result high group

## Task Band for Cc1nnc(-c2cccc(S(=O)(=O)Nc3cc(Br)ccc3C(=O)N3CCCCC3)c2)o1 ?
## Result middle group
